# Measured target: FGFR3 (UniProt P22607)
# Sequence (P22607 whole entry, looked up): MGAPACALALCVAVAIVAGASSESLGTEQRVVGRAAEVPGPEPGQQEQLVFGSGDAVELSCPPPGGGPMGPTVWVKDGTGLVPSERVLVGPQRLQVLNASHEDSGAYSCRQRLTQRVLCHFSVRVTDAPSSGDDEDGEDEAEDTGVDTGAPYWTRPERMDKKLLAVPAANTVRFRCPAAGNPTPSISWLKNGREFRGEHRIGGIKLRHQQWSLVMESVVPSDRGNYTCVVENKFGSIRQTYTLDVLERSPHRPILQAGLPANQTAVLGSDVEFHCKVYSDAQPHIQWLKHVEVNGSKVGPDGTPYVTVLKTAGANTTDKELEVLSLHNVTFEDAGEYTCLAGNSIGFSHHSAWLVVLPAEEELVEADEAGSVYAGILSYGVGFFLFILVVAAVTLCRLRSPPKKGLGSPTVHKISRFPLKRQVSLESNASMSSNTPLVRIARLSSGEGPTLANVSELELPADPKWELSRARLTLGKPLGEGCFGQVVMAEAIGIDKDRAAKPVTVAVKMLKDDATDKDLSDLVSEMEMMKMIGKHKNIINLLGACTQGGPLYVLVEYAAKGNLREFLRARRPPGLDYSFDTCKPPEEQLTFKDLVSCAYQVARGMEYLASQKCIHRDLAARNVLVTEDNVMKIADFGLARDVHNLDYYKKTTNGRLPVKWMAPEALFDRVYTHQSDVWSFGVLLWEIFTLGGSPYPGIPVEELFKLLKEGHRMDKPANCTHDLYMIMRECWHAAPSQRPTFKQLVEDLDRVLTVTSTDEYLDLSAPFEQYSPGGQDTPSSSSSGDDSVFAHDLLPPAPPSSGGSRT
# Method description: phosphorylation enrichment, bacterial display (enrichment ratio); higher = better substrate or ligand; peptides without Tyr show the background;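 note: 11-residue human phosphosite peptides and single-mutation variants displayed on the E. coli surface, counted by deep sequencing, each peptide's frequency after selection divided by its frequency in the unselected input library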;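 note: frequency after pTyr selection over input frequency; kinase dosed for 20-30% of maximal phosphorylation in three min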
Readout label: phosphorylation enrichment
Output spec: single numeric token, no unit.

Look over these answered cases.
{"columns": ["Chain sequence", "Measured target", "Value reported"],
 "data": [
  ["TSEASYFKSLN [NGEF_Y288_YF]", "FGFR3 (UniProt P22607)", 0.487],
  ["KLIETYSSKNY [PLP1_Y50_F51S]", "FGFR3 (UniProt P22607)", 0.619],
  ["MDDPRYGVCPL [ZNF100_Y6_M8V]", "FGFR3 (UniProt P22607)", 0.75],
  ["NLNGKCNKPRA [ANGPTL3_Y417_Y417C]", "FGFR3 (UniProt P22607)", 0.446],
  ["GFIISYREEEQ", "FGFR3 (UniProt P22607)", 0.729],
  ["KVALLYKPYFY [POLE_Y100_P99L]", "FGFR3 (UniProt P22607)", 0.693]
]}

For the sequence SGDINYGQFAQ [PLCG1_Y210_T209N] , what phosphorylation enrichment is on record? 0.548

Requested read-out: phosphorylation enrichment. Entry: WIPNQYPIISE [NOG_Y222_I220N] 0.671

----------
Item-by-item account of phosphorylation enrichment
# Tested on: Fer (mouse)
# Method description: phosphorylation enrichment, bacterial display (enrichment ratio); higher = better substrate or ligand; peptides without Tyr show the background

Previously resolved entries follow.
{"columns": ["Chain sequence", "phosphorylation enrichment"],
 "data": [
  ["KDDEKYLDVSR [MTM1_Y260_I264S]", 0.442],
  ["IGNGYYFHVFS [MYBPC3_Y1136_R1138H]", 0.604],
  ["RLLRGYDQLAY [HLA-C_Y137_S140L]", 0.758],
  ["SKHHLYSDLQT [PTCHD1_Y84_R82H]", 1.91]
]}

Below: the item to evaluate.
# lookup: phosphorylation enrichment of SIKDKYVMALF [KCNH2_Y611_T613M_YF] 0.385

----------
# Measured target: Hck (UniProt P08631)
# Sequence (P08631 whole entry, looked up): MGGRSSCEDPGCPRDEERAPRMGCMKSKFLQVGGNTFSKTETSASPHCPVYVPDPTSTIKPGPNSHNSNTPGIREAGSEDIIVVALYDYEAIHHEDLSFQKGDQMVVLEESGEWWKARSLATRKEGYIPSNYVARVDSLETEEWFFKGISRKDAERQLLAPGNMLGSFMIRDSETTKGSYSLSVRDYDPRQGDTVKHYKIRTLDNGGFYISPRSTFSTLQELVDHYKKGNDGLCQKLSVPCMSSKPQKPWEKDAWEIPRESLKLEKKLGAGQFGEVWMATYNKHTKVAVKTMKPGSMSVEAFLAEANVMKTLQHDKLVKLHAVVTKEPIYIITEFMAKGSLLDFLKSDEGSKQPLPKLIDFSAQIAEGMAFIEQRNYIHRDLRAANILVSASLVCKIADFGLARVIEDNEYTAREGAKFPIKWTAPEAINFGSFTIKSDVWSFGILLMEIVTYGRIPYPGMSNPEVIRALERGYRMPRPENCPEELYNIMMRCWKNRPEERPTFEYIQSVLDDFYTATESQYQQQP
# Method description: phosphorylation enrichment, bacterial display (enrichment ratio); higher = better substrate or ligand; peptides without Tyr show the background
Could you label it satisfied if measured phosphorylation enrichment is 0.5 or higher, and not satisfied otherwise?

Reference set, count: 4
{"columns": ["Chain sequence", "Qualitative label"],
 "data": [
  ["SEKVVYRRFTE [NCF1_Y41]", "not satisfied"],
  ["CTTIHYNFMWN [TP53_Y234_C238W_YF]", "satisfied"],
  ["FEPWVYSLSFE [PRKDC_Y647_F649L_YF]", "satisfied"],
  ["TIEDSYRKQVV [KRAS_Y40]", "not satisfied"]
]}

Okay, next one:
Textbook exercise: given the entry GRRNTYYASIA [ACADM_Y352] , state whether its phosphorylation enrichment is greater than or equal to 0.5. satisfied

----------
# Measured target: EPHB1 (UniProt P54762)
# Sequence (P54762 whole entry, looked up): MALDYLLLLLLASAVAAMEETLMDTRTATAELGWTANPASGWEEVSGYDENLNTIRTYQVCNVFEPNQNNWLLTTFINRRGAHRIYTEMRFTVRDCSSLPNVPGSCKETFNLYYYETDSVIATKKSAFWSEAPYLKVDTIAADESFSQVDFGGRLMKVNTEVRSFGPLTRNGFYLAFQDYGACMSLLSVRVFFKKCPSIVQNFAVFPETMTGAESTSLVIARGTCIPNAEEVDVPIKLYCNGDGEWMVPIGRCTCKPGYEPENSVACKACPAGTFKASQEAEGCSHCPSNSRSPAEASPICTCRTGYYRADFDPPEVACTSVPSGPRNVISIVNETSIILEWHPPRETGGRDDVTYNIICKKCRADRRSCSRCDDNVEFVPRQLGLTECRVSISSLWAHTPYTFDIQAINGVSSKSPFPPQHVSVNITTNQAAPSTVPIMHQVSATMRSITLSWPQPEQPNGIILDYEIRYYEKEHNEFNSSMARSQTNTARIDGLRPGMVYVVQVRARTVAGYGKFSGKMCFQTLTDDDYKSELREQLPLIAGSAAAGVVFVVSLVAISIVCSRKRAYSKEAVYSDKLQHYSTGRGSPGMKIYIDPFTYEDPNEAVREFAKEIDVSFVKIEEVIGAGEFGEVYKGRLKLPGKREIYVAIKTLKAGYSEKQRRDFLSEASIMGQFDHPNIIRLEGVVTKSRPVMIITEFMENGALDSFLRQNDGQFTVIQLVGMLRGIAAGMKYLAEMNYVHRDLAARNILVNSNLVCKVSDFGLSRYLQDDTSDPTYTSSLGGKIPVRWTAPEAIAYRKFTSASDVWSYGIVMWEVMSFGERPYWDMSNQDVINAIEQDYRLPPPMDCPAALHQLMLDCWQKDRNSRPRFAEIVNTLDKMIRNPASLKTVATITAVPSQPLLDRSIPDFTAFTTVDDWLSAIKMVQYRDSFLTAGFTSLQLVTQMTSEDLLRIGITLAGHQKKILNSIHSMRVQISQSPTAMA
# Method description: phosphorylation enrichment, bacterial display (enrichment ratio); higher = better substrate or ligand; peptides without Tyr show the background
Each record here notes measured phosphorylation enrichment.
Reply briefly: the number, and no unit.

Record excerpt, results attached:
{"columns": ["Chain sequence", "Value reported"],
 "data": [
  ["RFQKLYLDRNL [IGFALS_Y248_L244F]", 0.529],
  ["TLEKFYFAFPG [SLC1A1_Y51]", 1.98],
  ["CTTIRYNYMCN [TP53_Y234_H233R]", 0.461]
]}

Attention now shifts to the item below.
Return reported phosphorylation enrichment; argument: GHEYIYVDPMQ [PDGFRA_Y574] 7.52
